Test Name: Log Pow (octanol/water partition coefficient) of direct dyes
Condition Summary: octanol/water partition coefficient of the dye
Readout Kind: Log Pow
Answer field: number only, no words.

input: What value of measured Log Pow is listed for Nc1ccc(NCCO)c([N+](=O)[O-])c1 [HC RED NO.3] ?
output: −0.42

input: Cool, now CC1=NN(c2ccccc2)C(=O)C1N=Nc1cccc([N+](C)(C)C)c1.[Cl-] (stereo not shown) [BASIC YELLOW 57]
output: 0.06

input: Same question, C[N+](C)(C)c1cccc(N=C2C=C(N)c3c(O)c(Br)cc(N)c3C2=O)c1.[Cl-] [BASIC BLUE 99] this time
output: 1.88

input: Next: CN(C)c1ccc(N=Nc2n(C)cc[n+]2C)cc1.[Cl-] [BASIC RED 51]
output: −1.97

input: What would you report for CCN(Cc1cccc(S(=O)(=O)[O-])c1)c1ccc(C(=C2C=CC(=[N+](CC)Cc3cccc(S(=O)(=O)[O-])c3)C=C2)c2ccccc2S(=O)(=O)[O-])cc1.[Na+].[Na+] [ACID BLUE 9] ?
output: −0.32

input: // same read-out, input: O=C1c2ccccc2C(=O)c2c(NCC(O)CO)ccc(NCC(O)CO)c21 (stereo not shown) [HC BLUE NO. 14]
output: 2.09

input: Lookup Cc1ccc(Nc2ccc(Nc3ccc(C)cc3S(=O)(=O)[O-])c3c2C(=O)c2ccccc2C3=O)c(S(=O)(=O)[O-])c1.[Na+].[Na+] [ACID GREEN 25]
output: 5.71

input: Would you kindly repeat that for O=C([O-])c1c(Cl)c(Cl)c(Cl)c(Cl)c1-c1c2cc(Br)c(=O)c(Br)c-2oc2c(Br)c([O-])c(Br)cc12.[Na+].[Na+] [ACID RED 92] ?
output: 3

input: Next entry: Nc1cc(S(=O)(=O)[O-])cc2cc(S(=O)(=O)[O-])c(N=Nc3ccccc3)c(O)c12.[Na+].[Na+] [ACID RED 33]
output: 0.5

input: Similarly, Nc1ccc(O)cc1[N+](=O)[O-] [4-AMINO-3-NITROPHENOL] ?
output: 1.19

input: Continue with Nc1ccc(N)c2c1C(=O)c1ccccc1C2=O [DISPERSE VIOLET 1]
output: 3

input: Do the same for O=C([O-])C1=NN(c2ccc(S(=O)(=O)[O-])cc2)C(=O)C1N=Nc1ccc(S(=O)(=O)[O-])cc1.[Na+].[Na+].[Na+] (stereo not shown) [ACID YELLOW 23] please
output: −10.17

input: Same question for CN(N=Cc1cc[n+](C)cc1)c1ccccc1 [BASIC YELLOW 87] please.
output: −1.69

input: Now this one: O=S(=O)([O-])c1ccc(N=Nc2c(O)ccc3ccccc23)cc1.[Na+] [ACID ORANGE 7]
output: 1.4

input: Next entry: O=[N+]([O-])c1cc(O)ccc1NCCO [3-NITRO-P-HYDROXYETHYLAMINOPHENOL]
output: 0.21

input: Follow-up entry: C[N+](C)(C)c1ccc2ccc(O)c(N=Nc3ccc(N)c([N+](=O)[O-])c3)c2c1.[Cl-] [BASIC BROWN 17]
output: −0.15

The measured values listed here are drawn from patent US11173102B1.
